Assay: qHTS assay for measurement of the activity of small molecule inhibitors on Zika virus induced Caspase-3 activity in human astrocytoma cells (AID 1224859)
Conditions: SNB-19 ZIKV-induced caspase-3/7, luminescence, 6 h; series mostly up to 45.7 µM
The source made the active and inactive calls. Calls come from the whole dose curve; as a rule, active = well fitted inhibition curve with a large enough effect; inconclusive = small, poorly fitted or top-dose-only effect; inactive = no such curve, though single readings can be large or run the other way. Peptide text beside a SMILES is read from it.
Result category, one only: 1 = active, -1 = inactive

Answered examples (4):
Molecule	Classification
CCN(CCO)CCCC(C)Nc1ccnc2cc(Cl)ccc12 (configuration not stated)	-1
Cc1cc2cc3c(C)cc(=O)oc3c(C)c2o1	-1
CNC[C@@H](O)[C@@H](O)[C@H](O)[C@H](O)CO	-1
CC(C)C[C@H](NC(=O)[C@H](Cc1ccccc1)NC(=O)c1cnccn1)B(O)O	-1

Tell me the recorded outcome of this test for "CN(C)c1ccc(O)c2c1C[C@H]1C[C@H]3[C@H](N(C)C)C(=O)C(C(N)=O)=C(O)[C@@]3(O)C(=O)C1=C2O" . -1

Tell me the recorded outcome of this test for "Oc1ccc2ccccc2c1SSc1c(O)ccc2ccccc12" . -1

Tell me the recorded outcome of this test for COc1cc2nc(N3CCN(C(=O)C4CCCO4)CC3)nc(N)c2cc1OC (configuration not stated) . 1

Tell me the recorded outcome of this test for "O=C(O)c1cn(-c2ccc(F)cc2)c2cc(N3CCNCC3)c(F)cc2c1=O" . -1

Tell me the recorded outcome of this test for "COc1c2occc2cc2ccc(=O)oc12" . -1

Tell me the recorded outcome of this test for "O=c1cc(N2CCOCC2)oc2c(-c3ccccc3)cccc12" . -1

Tell me the recorded outcome of this test for "NS(=O)(=O)c1cc(C(=O)O)c(NCc2ccco2)cc1Cl" . -1

Tell me the recorded outcome of this test for C[C@@H](N)C1CCC(C(=O)Nc2ccncc2)CC1 (some centres not stated) . -1

Tell me the recorded outcome of this test for "Cc1ccc(Nc2nccc(N(C)c3ccc4c(C)n(C)nc4c3)n2)cc1S(N)(=O)=O" . -1

Tell me the recorded outcome of this test for "O=C1CCc2ccc(OCCCCN3CCN(c4cccc(Cl)c4Cl)CC3)cc2N1" . -1

Tell me the recorded outcome of this test for COC(=O)[C@H](Cc1ccccc1)NC(=O)[C@@H](N)CC(=O)O (H-Asp-Phe-OMe) . -1

Tell me the recorded outcome of this test for O=C(NCC1CCCCN1)c1cc(OCC(F)(F)F)ccc1OCC(F)(F)F (configuration not stated) . -1

Tell me the recorded outcome of this test for Cc1ncc([N+](=O)[O-])n1CC(C)O (configuration not stated) . -1

* * *

Target: Parathyroid hormone/parathyroid hormone-related peptide receptor (Homo sapiens) (UniProt Q03431)
Sequence (Q03431 whole entry, looked up): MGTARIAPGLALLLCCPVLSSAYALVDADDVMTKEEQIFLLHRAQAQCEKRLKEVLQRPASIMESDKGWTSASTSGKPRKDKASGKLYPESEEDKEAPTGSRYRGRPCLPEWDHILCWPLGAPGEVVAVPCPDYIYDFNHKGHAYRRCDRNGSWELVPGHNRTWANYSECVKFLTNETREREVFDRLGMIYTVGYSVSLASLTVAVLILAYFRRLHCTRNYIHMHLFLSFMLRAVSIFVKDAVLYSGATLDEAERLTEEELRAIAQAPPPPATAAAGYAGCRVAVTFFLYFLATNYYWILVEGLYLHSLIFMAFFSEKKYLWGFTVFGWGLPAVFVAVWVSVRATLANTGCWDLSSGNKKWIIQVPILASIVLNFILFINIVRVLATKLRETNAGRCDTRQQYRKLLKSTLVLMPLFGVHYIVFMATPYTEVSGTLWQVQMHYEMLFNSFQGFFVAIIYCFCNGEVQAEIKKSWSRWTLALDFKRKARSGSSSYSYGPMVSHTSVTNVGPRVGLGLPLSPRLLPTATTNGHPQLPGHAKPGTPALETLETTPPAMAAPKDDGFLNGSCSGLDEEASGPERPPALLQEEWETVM
Test: qHTS for PTHR1 Agonists: Optimization Screen against the NCGC LOPAC library (AID 1347079);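 note: GloSensor cAMP luminescence in HEK-293 GP2 cells expressing human PTHR1 with IBMX; 0% is about no effect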
Conditions: HEK293 GP2 PTHR1 GloSensor cAMP luminescence, 1 h; series mostly up to 57.1 µM
Calls of active or inactive are those of the source. Calls follow the shape of the dose curve; as a rule, active = well fitted activation curve with a large enough effect; inconclusive = small, poorly fitted or top-dose-only effect; inactive = no such curve, though single readings can be large or run the other way.
Readout: outcome

Some solved entries appear below for comparison.
Molecule	outcome
O=C(O)c1cccnc1Nc1cccc(C(F)(F)F)c1	inactive
Cc1cccc(C#Cc2ccccc2)n1	inactive
COc1cc2c(cc1OC)C1CC(=O)C(CC(C)C)CN1CC2 (configuration not stated)	inactive
NNc1nncc2ccccc12	inactive
O=C(c1ccccc1)c1ccc2n1CCC2C(=O)O (configuration not stated)	inactive
NC(=NCc1ccccc1)NC(=O)c1nc(Cl)c(N)nc1N	inactive

Can you look up the measured outcome of "Nc1nc(N)c(N=O)c(OCC2CCCCC2)n1" for me? inactive
